- Assay Target: JAK1-JH1JH2 (Homo sapiens (Human))
- Sequence (P23458 574-1154): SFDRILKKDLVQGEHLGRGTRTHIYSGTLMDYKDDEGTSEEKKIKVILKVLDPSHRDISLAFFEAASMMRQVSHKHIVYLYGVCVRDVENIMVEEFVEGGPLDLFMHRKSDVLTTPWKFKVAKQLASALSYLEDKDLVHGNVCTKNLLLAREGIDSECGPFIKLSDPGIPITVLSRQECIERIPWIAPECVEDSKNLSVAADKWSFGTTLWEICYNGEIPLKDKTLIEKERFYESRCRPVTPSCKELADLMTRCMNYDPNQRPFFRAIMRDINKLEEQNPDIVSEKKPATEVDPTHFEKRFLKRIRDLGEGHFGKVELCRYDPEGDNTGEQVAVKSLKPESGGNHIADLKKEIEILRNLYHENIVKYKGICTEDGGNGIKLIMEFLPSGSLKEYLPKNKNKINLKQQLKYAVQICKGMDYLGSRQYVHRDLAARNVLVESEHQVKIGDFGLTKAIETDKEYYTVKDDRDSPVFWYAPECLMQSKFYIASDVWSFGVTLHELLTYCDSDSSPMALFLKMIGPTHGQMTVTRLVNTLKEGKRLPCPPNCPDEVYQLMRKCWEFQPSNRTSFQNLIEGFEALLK
- Test Description: Enzymatic inhibition assay (RapidFire HTMS), JAK1
- Format: biochemical
- Measurement Context: 12.5 μM ATP, 200 μM substrate; read-out: JAK1-JH2JH1 IC50
Value Type: pIC50
// returns pIC50 (minus log10 of molar concentration), number only

                                   molecule                        assay_target  measured_number
0  [H]/N=C(\c1ccccc1)N(O)Cc1nc2cnc3[nH]ccc3c2n1[C@H]1CC[C@H](CC#N)CC1 [Ex. 17A]  JAK1-JH1JH2 (Homo sapiens (Human))            10.00
1  C[Si](C)(C)[C@H]1CC[C@@H](NC(=O)Cc2nc3cnc4[nH]ccc4c3n2[C@H]2CC[C@H](CC#N)CC2)CC1 [Ex. 135]  JAK1-JH1JH2 (Homo sapiens (Human))             9.10

Here is another molecule to look at.
In: State, in one line, measured pIC50 of N#CC[C@H]1CC[C@H](n2c(C(=O)N3CCC(C#N)CC3)nc3cnc4[nH]ccc4c32)CC1 [Ex. 177]
Out: 8.57
